Target: N-myc;MAX (human;human, UniProt P04198;P61244 1-464;1-160, |)
Sequence (P04198 whole entry, chain 1 of 2): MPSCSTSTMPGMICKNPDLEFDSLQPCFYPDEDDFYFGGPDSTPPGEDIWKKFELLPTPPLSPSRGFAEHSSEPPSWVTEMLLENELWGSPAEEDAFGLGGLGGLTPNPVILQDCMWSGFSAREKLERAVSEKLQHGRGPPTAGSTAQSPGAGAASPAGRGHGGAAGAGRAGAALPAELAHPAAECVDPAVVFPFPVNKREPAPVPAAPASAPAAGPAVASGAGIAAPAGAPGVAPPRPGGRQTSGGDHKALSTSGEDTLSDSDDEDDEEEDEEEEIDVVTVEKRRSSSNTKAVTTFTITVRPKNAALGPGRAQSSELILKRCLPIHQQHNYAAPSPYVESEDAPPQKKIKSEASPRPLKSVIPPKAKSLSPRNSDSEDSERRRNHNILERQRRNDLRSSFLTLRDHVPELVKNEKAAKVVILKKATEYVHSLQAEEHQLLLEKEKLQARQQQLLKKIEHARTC
Sequence (P61244 whole entry, chain 2 of 2): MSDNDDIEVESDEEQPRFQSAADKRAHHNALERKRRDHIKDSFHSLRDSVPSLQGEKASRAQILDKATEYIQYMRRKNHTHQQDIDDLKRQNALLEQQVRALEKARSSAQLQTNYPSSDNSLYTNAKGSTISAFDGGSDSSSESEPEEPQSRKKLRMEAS
Assay: fluorescence anisotropy

>  <binder>
1Ebox (dsDNA) DNA 1: AGCTTAACTGACCACGTGGTCAACTA DNA 2: TAGTTGACCACGTGGTCAGTTAAGCT

>  <Kd>
~150 nM

$$$$
